Target: Cytochrome P450 3A4 (Homo sapiens)
Experiment: qHTS Assay for Inhibitors and Substrates of Cytochrome P450 3A4 (AID 884); further: nearly all actives have a fitted effect of over 50% in size
Conditions: recombinant CYP3A4, Luciferin-PPXE luminescence; series mostly up to 57.1 µM
Results filed as inconclusive are left out. The source made the active and inactive calls. The call rests on the fitted dose curve; in most records, active means well fitted inhibition curve with a large enough effect; inconclusive means small, poorly fitted or top-dose-only effect; inactive means no such curve, though single readings can be large or run the other way.
measure_name: outcome

INSERT INTO results (compound, measure_name, endpoint_result) VALUES
  ('CCCN(CCC)CCc1cccc2c1CC(=O)N2', 'outcome', 'inactive'),
  ('CCCN(CCC)C(=O)C(CCC(=O)O)NC(=O)c1ccccc1 (stereo not given)', 'outcome', 'inactive'),
  ('Cc1scc2c1N(C(=O)CN1CCN(C)CC1)c1ccccc1NC2=O', 'outcome', 'inactive'),
  ('Nc1c2c(nc3ccccc13)CCCC2O (stereo not given)', 'outcome', 'inactive'),
  ('CCCNC(C)C(=O)Nc1ccccc1C (stereo not given)', 'outcome', 'inactive'),
  ('CCCCCN(CCCCC)C(=O)C(CCC(=O)O)NC(=O)c1ccc(Cl)c(Cl)c1 (stereo not given)', 'outcome', 'inactive'),
  ('CC(C)(Oc1ccc(CCNC(=O)c2ccc(Cl)cc2)cc1)C(=O)O', 'outcome', 'inactive'),
  ('C=CCc1ccccc1OCC(O)CNC(C)C (stereo not given)', 'outcome', 'inactive'),
  ('CC(=O)Nc1nnc(S(N)(=O)=O)s1', 'outcome', 'inactive'),
  ('NC(=Nc1ccccc1)Nc1ccccc1', 'outcome', 'inactive'),
  ('CC(C)NCC(O)c1cc(O)cc(O)c1 (stereo not given)', 'outcome', 'inactive'),
  ('NC(=O)N1c2ccccc2C=Cc2ccccc21', 'outcome', 'inactive'),
  ('CCCOc1ccccc1-c1nc2n[nH]nc2c(=O)[nH]1', 'outcome', 'inactive'),
  ('CC(C)NNC(=O)c1ccncc1', 'outcome', 'inactive'),
  ('CCn1cc(C(=O)O)c(=O)c2cc3c(cc21)OCO3', 'outcome', 'inactive');

====

Tested on: AS120
Assay: qHTS profiling for inhibitors of Plasmodium falciparum proliferation (AID 504749); further: nearly all actives have a fitted effect of over 60% in size
Details: P. falciparum in erythrocytes, SYBR Green DNA, 72 h; series mostly up to 28.7 µM
Experimental: NIH National Institute of Allergy and Infectious Diseases [NIAID] NIH Chemical Genomics Center [NCGC] […] Because mature erythrocytes lack DNA, only Plasmodium-derived DNA is detected. NCGC Assay Protocol Summary: The SYBR Green viability assay was adapted from a method described previously (Plouffe et al., 2008). […] The following morning, fluorescence intensity at 485(14) nm excitation and 535(25) nm emission wavelengths was measured on an EnVision (Perkin Elmer) plate reader. […]
Results filed as inconclusive are left out. The source made the active and inactive calls. The call rests on the fitted dose curve; in most records, active means well fitted inhibition curve with a large enough effect; inconclusive means small, poorly fitted or top-dose-only effect; inactive means flat fitted curve, though single readings scatter.
Classes used: active, inactive

INSERT INTO measurements (compound, study_target, class_name) VALUES
  ('NC(=O)c1cn(Cc2c(F)cccc2F)nn1', 'AS120', 'inactive'),
  ('CN1CCN(C2=Nc3ccccc3Oc3ccc(Cl)cc32)CC1', 'AS120', 'inactive'),
  ('Cc1scc2c1N(C(=O)CN1CCN(C)CC1)c1ccccc1NC2=O', 'AS120', 'inactive'),
  ('CCN1CCC[C@H]1CNC(=O)c1c(O)c(Cl)cc(Cl)c1OC', 'AS120', 'inactive'),
  ('CN(C(=O)CCCOc1ccc2[nH]c(=O)ccc2c1)C1CCCCC1', 'AS120', 'inactive'),
  ('C=CCc1ccccc1OCC(O)CNC(C)C (stereo unspecified)', 'AS120', 'active'),
  ('CC(C)(Oc1ccc(CCNC(=O)c2ccc(Cl)cc2)cc1)C(=O)O', 'AS120', 'inactive'),
  ('O=C1NCN(c2ccccc2)C12CCN(CCCC(c1ccc(F)cc1)c1ccc(F)cc1)CC2', 'AS120', 'active'),
  ('CN1CCN(CC(=O)N2c3ccccc3C(=O)Nc3cccnc32)CC1', 'AS120', 'inactive'),
  ('CC(C)NNC(=O)c1ccncc1', 'AS120', 'inactive'),
  ('CCCCCN(CCCCC)C(=O)C(CCC(=O)O)NC(=O)c1ccc(Cl)c(Cl)c1 (stereo unspecified)', 'AS120', 'inactive');

====

Test system: 3D7
Assay: qHTS profiling for inhibitors of Plasmodium falciparum proliferation (AID 504749); further: nearly all actives have a fitted effect of over 60% in size; further: potency means the concentration at half of the fitted maximal effect
Conditions: P. falciparum in erythrocytes, SYBR Green DNA, 72 h; series mostly up to 28.7 µM
Records with an inconclusive call do not appear. Activity calls are given as the source filed them. Calls come from the whole dose curve; as a rule, active = well fitted inhibition curve with a large enough effect; inconclusive = small, poorly fitted or top-dose-only effect; inactive = flat fitted curve, though single readings scatter.
measure_name: Potency

INSERT INTO results (molecule, endpoint_result) VALUES
  ('COC(=O)C1=C(C)NC(C)=C(C(=O)OC(C)(C)CN(C)CCC(c2ccccc2)c2ccccc2)C1c1cccc([N+](=O)[O-])c1 (stereo not given)', '2.51 µM (active)'),
  ('CCn1ccnc1CC1COc2ccccc2O1 (stereo not given)', 'inactive'),
  ('NC(N)=N/N=C/c1c(Cl)cccc1Cl', 'inactive'),
  ('CCN(CC)CCNC(=O)c1ccc(NC(C)=O)cc1', 'inactive'),
  ('CC1=C(C)C(=O)C(CCCCC#CCCCC#CCO)=C(C)C1=O', '12.6 µM (active)'),
  ('Nc1ncn([C@@H]2O[C@H](CO)[C@@H](O)[C@H]2O)c(=O)n1', 'inactive'),
  ('CCOC(=O)C1=C(C)NC(C)=C(C(=O)OC)C1c1cccc(Cl)c1Cl (stereo not given)', 'inactive'),
  ('CN1CCN(C2=Nc3ccccc3Oc3ccc(Cl)cc32)CC1', 'inactive'),
  ('O=C(O)CP(=O)(O)O', 'inactive'),
  ('CN(C)CCN(Cc1cccs1)c1ccccn1', 'inactive'),
  ('NCCCNCCSP(=O)(O)O', 'inactive'),
  ('CC(=O)Nc1nnc(S(N)(=O)=O)s1', 'inactive'),
  ('CC(C(=O)O)c1ccc(CC2CCCC2=O)cc1 (stereo not given)', 'inactive'),
  ('CC(=O)Oc1cc(C(C)C)c(OCCN(C)C)cc1C', 'inactive'),
  ('c1cnc(N2CCN(Cc3ccc4c(c3)OCO4)CC2)nc1', 'inactive'),
  ('C=CCc1ccccc1OCC(O)CNC(C)C (stereo not given)', 'inactive'),
  ('COC(=O)[C@H]1[C@H]2C[C@@H]3c4[nH]c5cc(OC)ccc5c4CCN3C[C@H]2C[C@@H](OC(=O)c2cc(OC)c(OC)c(OC)c2)[C@@H]1OC', '8.91 µM (active)'),
  ('NC(N)=NC(=O)Cc1c(Cl)cccc1Cl', 'inactive'),
  ('O=c1[nH]c(=O)n([C@H]2C[C@H](O)[C@@H](CO)O2)cc1Br', 'inactive'),
  ('Cc1ccc(Cl)c(Nc2ccccc2C(=O)O)c1Cl', 'inactive'),
  ('CCOC(=O)c1cnc2c(cnn2CC)c1NN=C(C)C', 'inactive'),
  ('CCO/C([O-])=N/c1c[n+](N2CCOCC2)no1', 'inactive'),
  ('CN(C(=O)CCCOc1ccc2[nH]c(=O)ccc2c1)C1CCCCC1', 'inactive'),
  ('CN(C)C(=O)Oc1cccc([N+](C)(C)C)c1', 'inactive'),
  ('CN(C)C(=O)Oc1ccc[n+](C)c1', 'inactive');

====

Target: alpha-glucosidase (Oryza sativa, rice) (UniProt Q653V4)
Assay: Counterscreen for Glucocerebrosidase Inhibitors: qHTS Assay for Rice alpha-Glucosidase at pH 5.0 (AID 997)
Settings: rice alpha-glucosidase enzyme activity; series mostly up to 76.9 µM
Active and inactive are the calls of the source. The call rests on the fitted dose curve; in most records, active means well fitted curve in the direction sought with a large enough effect; inconclusive means small, poorly fitted or top-dose-only effect, or another doubt; inactive means no such curve, though single readings can be large or run the other way.
measure_name: outcome

INSERT INTO measurements (compound, measure_name, endpoint_result) VALUES
  ('CCCOc1ccccc1-c1nc2n[nH]nc2c(=O)[nH]1', 'outcome', 'inactive'),
  ('NCCCNCCSP(=O)(O)O', 'outcome', 'inactive'),
  ('C[N+](C)(C)CCOC(=O)CCC(=O)OCC[N+](C)(C)C', 'outcome', 'inactive'),
  ('C[C@H](CS)C(=O)N1CCC[C@H]1C(=O)O', 'outcome', 'inactive'),
  ('CCCCNc1c(C(=O)OCC)c(C)nc2c1cnn2CC', 'outcome', 'inactive'),
  ('CN(C)CCCN1c2ccccc2Sc2ccc(C(F)(F)F)cc21', 'outcome', 'inactive'),
  ('Cc1nc2ccccn2c(=O)c1CCN1CCC(C(=O)c2ccc(F)cc2)CC1', 'outcome', 'inactive'),
  ('CCO/C([O-])=N/c1c[n+](N2CCOCC2)no1', 'outcome', 'inactive'),
  ('C[n+]1cc2c3c(ccc2c2ccc4cc5c(cc4c21)OCO5)OCO3', 'outcome', 'inactive'),
  ('COc1cc(Cc2cnc(N)nc2N)cc(OC)c1OC', 'outcome', 'inactive'),
  ('Cc1scc2c1N(C(=O)CN1CCN(C)CC1)c1ccccc1NC2=O', 'outcome', 'inactive'),
  ('COc1cc2c(cc1OC)-c1cc(=Nc3c(C)cc(C)cc3C)n(C)c(=O)n1CC2', 'outcome', 'inactive'),
  ('CC(=O)Oc1cc(C(C)C)c(OCCN(C)C)cc1C', 'outcome', 'inactive'),
  ('CCn1cc(C(=O)O)c(=O)c2cc3c(cc21)OCO3', 'outcome', 'inactive'),
  ('C[N+](C)(C)CCOC(N)=O', 'outcome', 'inactive'),
  ('c1cnc(N2CCN(Cc3ccc4c(c3)OCO4)CC2)nc1', 'outcome', 'inactive'),
  ('NC(N)=NC(=O)Cc1c(Cl)cccc1Cl', 'outcome', 'inactive'),
  ('O=C1NCN(c2ccccc2)C12CCN(CCCC(c1ccc(F)cc1)c1ccc(F)cc1)CC2', 'outcome', 'inactive'),
  ('C[C@]12C=CC(=O)C=C1CC[C@H]1[C@@H]3C[C@@H](O)[C@](O)(C(=O)CO)[C@@]3(C)C[C@H](O)[C@@]12F', 'outcome', 'inactive'),
  ('C[C@]12CCC(=O)C=C1CC[C@@H]1[C@@H]2CC[C@@]2(C)[C@H]1CC[C@]2(O)C(=O)CO', 'outcome', 'inactive'),
  ('c1cc(CN2CCCCC2)cc(OCCCNc2nc3ccccc3s2)c1', 'outcome', 'inactive'),
  ('O=C1CC2(CCCC2)CC(=O)N1CCCCN1CCN(c2ncccn2)CC1', 'outcome', 'inactive'),
  ('Brc1c(NC2=NCCN2)ccc2nccnc12', 'outcome', 'inactive'),
  ('C(=C\c1ccccc1)/CN1CCN(C(c2ccccc2)c2ccccc2)CC1', 'outcome', 'inactive'),
  ('CNCCCN1c2ccccc2CCc2ccccc21', 'outcome', 'inactive'),
  ('COC(=O)[C@@H](N)Cc1ccc(O)c(O)c1', 'outcome', 'inactive'),
  ('O=C(O)CP(=O)(O)O', 'outcome', 'inactive'),
  ('CC(=O)Nc1nnc(S(N)(=O)=O)s1', 'outcome', 'inactive'),
  ('CCc1c(C)[nH]c2c1C(=O)C(CN1CCOCC1)CC2 (stereo not drawn)', 'outcome', 'inactive'),
  ('CCCCNC(=O)NS(=O)(=O)c1ccc(C)cc1', 'outcome', 'inactive'),
  ('COCC(=O)O[C@]1(CCN(C)CCCc2nc3ccccc3[nH]2)CCc2cc(F)ccc2[C@@H]1C(C)C', 'outcome', 'inactive'),
  ('CN(C)CCCN1c2ccccc2Sc2ccccc21', 'outcome', 'inactive'),
  ('CC[N+](C)(C)c1cccc(O)c1', 'outcome', 'inactive'),
  ('O=C(O)CCCCCCCC(=O)O', 'outcome', 'inactive'),
  ('CC1=C(C)C(=O)C(CCCCC#CCCCC#CCO)=C(C)C1=O', 'outcome', 'inactive'),
  ('CCNC(=O)N1CCN(CCCC(c2ccc(F)cc2)c2ccc(F)cc2)CC1', 'outcome', 'inactive'),
  ('CCCC(C(=O)OCCN(CC)CC)(c1ccccc1)c1ccccc1', 'outcome', 'inactive'),
  ('O=c1[nH]c(=O)n([C@H]2C[C@H](O)[C@@H](CO)O2)cc1Br', 'outcome', 'inactive');

The values you see were collected from PubChem BioAssay (NCATS).
